Test system: HeLa cells, 3H-mannose incorporation into glycoproteins
Assay: increase in 3H-mannose incorporation into HeLa proteins, late-stage follow-up, orthogonal assay for PMI inhibitor project, HeLa cells (AID 1553);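 also: 1 fold = DMSO treated HeLa control cells; higher fold signals phosphomannose isomerase inhibition routing mannose into glycosylation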
Settings: fold increase; at 25 µM; stronger effect = higher value
Give measured fold increase 3H incorporation for each item. Keep answers brief.
One number for each entry.

For orientation, consider the following solved cases.
| compound | measure | value |
| --- | --- | --- |
| COc1cc(N=c2ssnc2Cl)c(OC)cc1Cl | fold increase 3H incorporation | 1.2 |
| OCc1ccccc1N=c1ssnc1Cl | fold increase 3H incorporation | 0.9 |
| Clc1nss/c1=N\c1nccs1 | fold increase 3H incorporation | 1.1 |

Quick request: fold increase 3H incorporation for each listed item, please.
1. COc1cccc(-n2sc3ccccc3c2=O)c1
2. N#Cc1ccc(N=c2ssnc2Cl)cc1
3. CCc1cc(CC)c(N=c2ssnc2Cl)c(CC)c1
4. Cc1ccc(C)c(-n2[nH]c3ccccc3c2=O)c1
5. Clc1nss/c1=N\c1nc2ccccc2s1
6. Cc1c(Cl)cccc1-n1sc2cc([N+](=O)[O-])cc(OCC(F)(F)F)c2c1=O
7. O=c1c2ccccc2sn1-c1nccs1

0.8
1
0.3
0.9
0.7
1.4
0.9

Quick request: fold increase 3H incorporation for each listed item, please.
1. O=C(O)c1cccc(-n2sc3ccccc3c2=O)c1
2. O=c1c2ccccc2sn1-c1cccc(S(=O)(=O)Nc2ccc(Cl)cc2)c1
3. O=c1c2ccc(O)cc2sn1C1CCCC1

1: 0.5; 2: 0.4; 3: 1.1

Short answer for `Cc1ccc(C)c(-n2sc3cc(F)ccc3c2=O)c1` : fold increase 3H incorporation was 1.4
